# Tested on: SK-MEL-28 melanoma
# METHOD SUMMARY: NCI tumour cell line growth inhibition, 48 h; in the data active = GI50 below about 0.43 µM; inactive = the rest
API: response.call in active, inactive

Worked cases, answers included:
{"columns": ["MOLECULE", "LABEL"],
 "data": [
  ["Cc1ccc(S(=O)(=O)n2cc([C@@]3(O)C[C@H](CSC#N)OC3=O)c3ccccc32)cc1", "inactive"],
  ["Cc1ccc2oc(=O)c3c(O)c4cccc(OC5OC(C)C6O[C@@H](c7ccccc7)OC6C5OC5OC(C)C(O)C(O)C5O)c4c4oc(=O)c1c2c34 (stereo partly drawn)", "active"],
  ["CC12OC(C(=O)C13CC3)C1C(=O)c3c(O)ccc(O)c3C(=O)C12 (stereo not drawn)", "inactive"],
  ["NC1=NC(SCc2ccccc2CCl)c2ncn(Cc3ccccc3CCl)c2N1 (stereo not drawn)", "inactive"]
]}

Q. # outcome recorded in this test, key = O=C(O)COc1ccc(OCC(=O)O)cc1
A. inactive
